Test system: TK− VZV Strain (07-1)
assayName: microbe, parasite or virus in culture
Type: cell-based, varicella-zoster virus
experimentalParameters: Human alphaherpesvirus 3, HEL, read-out: Antiviral Activity EC50 TK− VZV Strain (07-1)
What EC50 was measured for each of the following?
Only the number, expressed in µM, is required.

Request: EC50, test system TK− VZV Strain (07-1), entry O=c1[nH]c(=O)n([C@H]2C[C@H](O)[C@@H](CO)O2)cc1/C=C/Br [Brivudin, reference compound]
31.9

And CCOP(=O)(OCC)[C@H]1C[C@H](c2nc3ccc(Br)cc3c(=O)n2Cc2ccc([N+](=O)[O-])cc2)ON1C (relative stereo) [trans-11e] ?
7.51

###

Test system: HEL cells
experimentalParameters: Table 3 (HCMV experiments), minimum cytotoxic concentration
What Cytotoxicity Cell Morphology MCC was measured for each of the following?
Only the number, expressed in μM, is required.

Dear colleague, I am looking for the recorded Cytotoxicity Cell Morphology MCC of the following compound: CCOP(=O)(OCC)[C@H]1C[C@@H](c2nc3ccc(Br)cc3c(=O)[nH]2)ON1C (relative stereo) [cis-11a]
20

And CCOP(=O)(OCC)[C@H]1C[C@H](c2nc3ccc(Br)cc3c(=O)n2CC)ON1C (relative stereo) [trans-11k] ?
20

And CCOP(=O)(OCC)[C@H]1C[C@H](c2nc3ccc(Br)cc3c(=O)[nH]2)ON1C (relative stereo) [trans-11a] ?
100

###

Test system: human cytomegalovirus Davis Strain
assayName: Antiviral activity against human cytomegalovirus Davis strain in HEL cell cultures
Format: cell-based
experimentalParameters: Human betaherpesvirus 5, HEL, read-out: Antiviral Activity EC50 Davis Strain
measureName: pEC50
Please note pEC50 is a logarithmic value: minus log10 of concentration in mol/L. Answer with that number alone.

Dear colleague, I am looking for the recorded pEC50 of the following compound: Nc1nc(O)c2ncn(COC(CO)CO)c2n1 [Ganciclovir, reference compound]
5.11

###

assayName: in vitro
experimentalParameters: human
measureName: CC50

Dear colleague, I am looking for the recorded CC50 of the following molecule: Nc1nc(O)c2ncn(COC(CO)CO)c2n1 [Ganciclovir, reference compound]
> 350 µM

And Nc1ccn(C[C@@H](CO)OCP(=O)(O)O)c(=O)n1 [Cidofovir, reference compound] ?
> 300 µM

And O=c1[nH]c(=O)n([C@H]2C[C@H](O)[C@@H](CO)O2)cc1/C=C/Br [Brivudin, reference compound] ?
> 300 µM

And `Nc1nc2c(ncn2COCCO)c(=O)[nH]1` ?
> 350 µM

###

Test system: human T-lymphocyte (CEM)
assayName: Inhibition of proliferation of human T-lymphocyte CEM cells
Type: cell-based
experimentalParameters: 72 h, cell proliferation, three days, read-out: IC50 CEM
measureName: IC50 (µM)
Only the number, expressed in µM, is required.

Dear colleague, I am looking for the recorded IC50 of the following molecule: O=c1[nH]cc(F)c(=O)[nH]1 [5-Fluorouracil, reference compound]
18

###

System: murine leukemia (L1210)
assayName: Inhibition of proliferation of murine leukemia L1210 cells
Format: cell-based
experimentalParameters: Mus musculus, L1210, 48 h, read-out: IC50 L1210
measureName: IC50 (µM)
Only the number, expressed in µM, is required.

Dear colleague, I am looking for the recorded IC50 of the following molecule: CCOP(=O)(OCC)[C@H]1C[C@H](c2nc3ccc(Br)cc3c(=O)n2Cc2ccc([N+](=O)[O-])cc2)ON1C (relative stereo) [trans-11e]
18

And CCOP(=O)(OCC)[C@H]1C[C@H](c2nc3ccc(Br)cc3c(=O)n2C)ON1C (relative stereo) [trans-11j] ?
138

And CCOP(=O)(OCC)[C@H]1C[C@H](c2nc3ccc(Br)cc3c(=O)[nH]2)ON1C (relative stereo) [trans-11a] ?
126

###

Tested on: human cervix carcinoma (HeLa)
assayName: Inhibition of proliferation of human cervix carcinoma HeLa cells
Type: cell-based
experimentalParameters: 96 h, cell proliferation, four days, read-out: IC50 HeLa
measureName: pIC50
Please note pIC50 is a logarithmic value: minus log10 of concentration in mol/L. Answer with that number alone.

Request: pIC50, test system human cervix carcinoma (HeLa), entry O=c1[nH]cc(F)c(=O)[nH]1 [5-Fluorouracil, reference compound]
6.27

###

Test system: TK+ VZV Strain (OKA)
assayName: microbe, parasite or virus in culture
Assay type: cell-based, varicella-zoster virus
experimentalParameters: Human alphaherpesvirus 3, HEL, read-out: Antiviral Activity EC50 TK+ VZV Strain (OKA)
measureName: EC50

Request: EC50, test system TK+ VZV Strain (OKA), entry CCOP(=O)(OCC)[C@H]1C[C@H](c2nc3ccc(Br)cc3c(=O)n2C)ON1C (relative stereo) [trans-11j]
> 4 µM

And CCOP(=O)(OCC)[C@H]1C[C@H](c2nc3ccc(Br)cc3c(=O)[nH]2)ON1C (relative stereo) [trans-11a] ?
> 100 µM

And CCOP(=O)(OCC)[C@H]1C[C@H](c2nc3ccc(Br)cc3c(=O)n2Cc2ccc([N+](=O)[O-])cc2)ON1C (relative stereo) [trans-11e] ?
6.84 µM

And O=c1[nH]c(=O)n([C@H]2C[C@H](O)[C@@H](CO)O2)cc1/C=C/Br [Brivudin, reference compound] ?
0.023 µM

And CCOP(=O)(OCC)[C@H]1C[C@@H](c2nc3ccc(Br)cc3c(=O)[nH]2)ON1C (relative stereo) [cis-11a] ?
> 100 µM

And CCOP(=O)(OCC)[C@H]1C[C@H](c2nc3ccc(Br)cc3c(=O)n2CC)ON1C (relative stereo) [trans-11k] ?
> 20 µM

###

Tested on: HEL cells
experimentalParameters: Table 2 (VZV experiments), minimum cytotoxic concentration
measureName: Cytotoxicity Cell Morphology MCC (μM)
Only the number, expressed in μM, is required.

Dear colleague, I am looking for the recorded Cytotoxicity Cell Morphology MCC of the following compound: CCOP(=O)(OCC)[C@H]1C[C@H](c2nc3ccc(Br)cc3c(=O)n2CC)ON1C (relative stereo) [trans-11k]
100

And CCOP(=O)(OCC)[C@H]1C[C@H](c2nc3ccc(Br)cc3c(=O)n2C)ON1C (relative stereo) [trans-11j] ?
20

And CCOP(=O)(OCC)[C@H]1C[C@H](c2nc3ccc(Br)cc3c(=O)n2Cc2ccc([N+](=O)[O-])cc2)ON1C (relative stereo) [trans-11e] ?
20

###

System: HEL cells
experimentalParameters: Table 3 (HCMV experiments), minimum cytotoxic concentration
measureName: Cytotoxicity Cell Morphology MCC (μM)
Only the number, expressed in μM, is required.

Dear colleague, I am looking for the recorded Cytotoxicity Cell Morphology MCC of the following compound: CCOP(=O)(OCC)[C@H]1C[C@H](c2nc3ccc(Br)cc3c(=O)n2C)ON1C (relative stereo) [trans-11j]
20

And CCOP(=O)(OCC)[C@H]1C[C@H](c2nc3ccc(Br)cc3c(=O)n2Cc2ccc([N+](=O)[O-])cc2)ON1C (relative stereo) [trans-11e] ?
100

###

What Cytotoxicity Cell Morphology MCC was measured for each of the following?
Test system: HEL cells
experimentalParameters: Table 2 (VZV experiments), minimum cytotoxic concentration

Dear colleague, I am looking for the recorded Cytotoxicity Cell Morphology MCC of the following compound: CCOP(=O)(OCC)[C@H]1C[C@@H](c2nc3ccc(Br)cc3c(=O)[nH]2)ON1C (relative stereo) [cis-11a]
>100 μM

And O=c1[nH]c(=O)n([C@H]2C[C@H](O)[C@@H](CO)O2)cc1/C=C/Br [Brivudin, reference compound] ?
>300 μM

And CCOP(=O)(OCC)[C@H]1C[C@H](c2nc3ccc(Br)cc3c(=O)[nH]2)ON1C (relative stereo) [trans-11a] ?
>100 μM
